Value source: ChEMBL document CHEMBL1144124

test system: A549; assay: Cytotoxicity against human A549 cells after 48 hrs by SRB assay; type: functional; settings: A549, 48 h, read-out: ED50 (the source's name)
pEC50: −log10 of the molar value.
pEC50 vs 6: at or above is Met, below is Not met.

Input line: Does pEC50 meet or surpass 6 for COc1c(C)c2c([nH]c1=O)C(=O)c1ccccc1C2=O [DIELSIQUINONE] ?
Output line: Met

Input line: And COc1c(C)c2c([nH]c1=O)C(=O)c1cccc(O)c1C2=O [MARCANINE D] ?
Output line: Met

Input line: And COc1c(C)c2c(n(C)c1=O)C(=O)c1ccccc1C2=O [MARCANIN B] ?
Output line: Met

Input line: And Cc1cc(=O)[nH]c2c1C(=O)c1ccccc1C2=O [MARCANIN A] ?
Output line: Met

Input line: And `CC(=O)C1=C(N)C(=O)c2c(O)cccc2C1=O` ?
Output line: Not met

---

test system: HT-29; assay: Cytotoxicity against human HT-29 cells after 48 hrs by SRB assay; assay type: functional; conditions: HT-29, 48 h, read-out: ED50 (the source's name)
Catalogue of compounds with associated pEC50
Kindly note that pEC50 refers to -log10 of the concentration in mol/L and answer with the value alone.

COc1c(C)c2c([nH]c1=O)C(=O)c1ccccc1C2=O [DIELSIQUINONE] ... 5.95
COc1c(CO)c2c(n(C)c1=O)C(=O)c1ccccc1C2=O [MARCANINE C] ... 6.48

Input line: Which pEC50 is listed for Cc1cc(=O)[nH]c2c1C(=O)c1ccccc1C2=O [MARCANIN A] ?
Output line: 6.38

Input line: And COc1c(C)c2c([nH]c1=O)C(=O)c1cccc(O)c1C2=O [MARCANINE D] ?
Output line: 6.46

Input line: And COc1c(C)c2c(n(C)c1=O)C(=O)c1ccccc1C2=O [MARCANIN B] ?
Output line: 5.67

---

tested on: U-251; assay: Cytotoxicity against human U251 cells after 48 hrs by SRB assay; format: functional; details: U-251, 48 h, read-out: ED50 (the source's name)
Define the label as satisfied when EC50 is strictly less than 1000 nM and as not satisfied in all remaining cases.

COc1c(C)c2c(n(C)c1=O)C(=O)c1ccccc1C2=O [MARCANIN B] ... not satisfied
Cc1cc(=O)[nH]c2c1C(=O)c1ccccc1C2=O [MARCANIN A] ... satisfied
COc1c(C)c2c([nH]c1=O)C(=O)c1cccc(O)c1C2=O [MARCANINE D] ... satisfied
CC(=O)C1=C(N)C(=O)c2c(O)cccc2C1=O ... not satisfied

Continue with the next molecule.
Input line: Please check: EC50 for COc1c(C)c2c([nH]c1=O)C(=O)c1ccccc1C2=O [DIELSIQUINONE] , strictly under 1000 nM or not?
Output line: satisfied
